For each of the compounds below, state its viability at 48 h, 0.01 µM.
run-description: Cytotoxicity against human HaCaT cells assessed as cell survival at 0.01 uM after 48 hrs by MTT assay (reference value: 100%)
Format: cell-based
test-settings: read-out: Survival
Answers are plain numbers, in %.

compound | result-units | viability at 48 h, 0.01 µM
CCOC(=O)CC1c2cccc(O)c2C(=O)c2c(O)cccc21 | % | 47
O=C1c2c(O)cccc2Cc2cccc(O)c21 [ANTHRALIN] | % | 94.5
COc1ccc(CNC(=O)CC2c3cccc(O)c3C(=O)c3c(O)cccc32)c(OC)c1 | % | 92.3
CCCCCCCCCCCCNC(=O)CC1c2cccc(O)c2C(=O)c2c(O)cccc21 | % | 55.9
O=C(O)CC1c2cccc(O)c2C(=O)c2c(O)cccc21 | % | 87.1

Now let's try a different one.
Query: Which viability at 48 h, 0.01 µM is listed for CCCCNC(=O)CC1c2cccc(O)c2C(=O)c2c(O)cccc21 ?
Result: 87.2

----------
run-description: Antioxidant activity assessed as DPPH free radical scavenging activity by measuring reducing activity at 100 uM after 20 mins by spectrophotometry
Type: physicochemical
Set-up: scale not given: the % may be the effect or the level left
Please mark fulfilled if the recorded Activity is equal to or greater than 30%, and not fulfilled if it falls below.

Previously resolved entries follow.
compound | qualitative-label
O=C(CC1c2cccc(O)c2C(=O)c2c(O)cccc21)NCc1ccccc1 | not fulfilled
NCCCCN(CCCN)C(=O)CC1c2cccc(O)c2C(=O)c2c(O)cccc21.O=C(O)C(F)(F)F.O=C(O)C(F)(F)F | fulfilled
CCOC(=O)CC1c2cccc(O)c2C(=O)c2c(O)cccc21 | fulfilled
COc1ccc(CNC(=O)CC2c3cccc(O)c3C(=O)c3c(O)cccc32)c(OC)c1 | fulfilled
CCCCNC(=O)CC1c2cccc(O)c2C(=O)c2c(O)cccc21 | fulfilled
O=C1c2c(O)cccc2Cc2cccc(O)c21 [ANTHRALIN] | fulfilled
CCCCCCCCCCCCNC(=O)CC1c2cccc(O)c2C(=O)c2c(O)cccc21 | fulfilled
O=C(O)CC1c2cccc(O)c2C(=O)c2c(O)cccc21 | not fulfilled
NCCc1ccc(O)c(O)c1 [DOPAMINE] | fulfilled
O=C(CC1c2cccc(O)c2C(=O)c2c(O)cccc21)NCCc1ccc(O)c(O)c1 | fulfilled

Query: Dear colleague, could you confirm whether NCCCNCCCCNCCCN [SPERMINE] has Activity at or above 30%?
Result: not fulfilled

Query: Dear colleague, could you confirm whether NCCCNCCCCNCCCNC(=O)CC1c2cccc(O)c2C(=O)c2c(O)cccc21.O=C(O)C(F)(F)F.O=C(O)C(F)(F)F.O=C(O)C(F)(F)F has Activity at or above 30%?
Result: fulfilled

Query: Dear colleague, could you confirm whether CC(C)(C)OC(=O)CC1c2cccc(O)c2C(=O)c2c(O)cccc21 has Activity at or above 30%?
Result: not fulfilled

Query: Dear colleague, could you confirm whether CC(Cc1ccc(O)c(O)c1)C(C)Cc1ccc(O)c(O)c1 (configuration not stated) [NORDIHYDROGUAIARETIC ACID] has Activity at or above 30%?
Result: fulfilled

Query: Dear colleague, could you confirm whether COc1ccc(CNC(=O)CC2c3cccc(O)c3C(=O)c3c(O)cccc32)cc1OC has Activity at or above 30%?
Result: fulfilled
